# Tested on: HBV
# Procedure details: Anti-HBV activity, intracellular HBV DNA by real-time PCR (HBV-AVE-HepG2.117)
# Type: cell-based, Hepatitis B virus
# Recorded conditions: Hepatitis B virus, HepG2.117, 72 h, HepG2.117 cell line, 3 days of treatment, intracellular HBV DNA, mean value; read-out: HBV-AVE-HepG2.117 EC50 (μM; mean value)
Measure name: EC50 (µM)
Numbers only, in µM.

Some solved cases for reference:
Compound: O=C(NC1(c2c[nH]nn2)CC(F)(F)C1)C(=O)N1CC[C@H](C(=O)Nc2cc(F)c(F)c(F)c2)C1
EC50 / µM: 0.053
//
Compound: C[C@H]1[C@@H](C(=O)Nc2cc(F)c(F)c(Cl)c2)CCN1C(=O)C(=O)N[C@H](CC(F)(F)F)c1c[nH]nn1 (single isomer, unassigned) [C32R*]
EC50 / µM: 0.007

# input for lookup
Need EC50 of C[C@H]1[C@@H](C(=O)Nc2ccc(Cl)c(Cl)c2)CCN1C(=O)C(=O)N[C@@H](CC(F)(F)F)c1c[nH]nn1 (single isomer, unassigned) [C25S*] , thanks.
0.074
